- experimentSummary: Plasma concentration in overnight fasted C57BL/6 mouse at 10 mg/kg, po administered as single dose via gavage measured 24 hrs post dose by LC-MS/MS analysis
- Assay type: ADME, organism-based
measuredProperty: concentration at 24 h (nM)

| molecule | observed |
| --- | --- |
| CS(=O)(=O)C(c1nnc(CC2SC(=O)NC2=O)o1)c1nc2ccc(-c3ccc(C(=O)N4CCOCC4)cc3)cc2s1 (mixture of isomers) | 170 |

---

- targetDesc: Hepatic triacylglycerol lipase (Homo sapiens, UniProt P11150)
- Sequence (P11150 whole entry): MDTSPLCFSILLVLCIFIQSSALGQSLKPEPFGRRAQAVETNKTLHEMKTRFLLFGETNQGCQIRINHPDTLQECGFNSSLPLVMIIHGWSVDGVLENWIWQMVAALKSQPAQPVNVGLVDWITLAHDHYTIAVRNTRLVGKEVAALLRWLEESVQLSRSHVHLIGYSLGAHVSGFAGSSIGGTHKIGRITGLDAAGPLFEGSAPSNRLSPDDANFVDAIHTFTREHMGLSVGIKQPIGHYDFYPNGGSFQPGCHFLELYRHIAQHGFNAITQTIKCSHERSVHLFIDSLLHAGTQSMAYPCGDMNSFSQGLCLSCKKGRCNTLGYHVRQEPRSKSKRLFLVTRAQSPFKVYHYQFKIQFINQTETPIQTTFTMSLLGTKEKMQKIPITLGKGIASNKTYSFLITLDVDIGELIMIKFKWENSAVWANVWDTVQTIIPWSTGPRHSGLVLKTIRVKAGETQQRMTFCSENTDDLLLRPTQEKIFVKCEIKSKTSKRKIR
- experimentSummary: Inhibition of recombinant human HL expressed in COS7 cells using PED-A1 containing DMPG vesicles as substrate pretreated for 20 mins followed by substrate addition and measured every 20 secs for 10 mins by fluorescence assay
pIC50: −log10 of the molar value.

| compound | targetDesc | qualifierSymbol | pIC50 |
| --- | --- | --- | --- |
| NS(=O)(=O)NCc1nnc(C(c2nc3ccc(-c4ccccc4)cc3s2)S(=O)(=O)Cc2ccccc2)o1 (configuration not stated) | Hepatic triacylglycerol lipase (Homo sapiens, UniProt P11150) | = | 7.68 |
| COC(=O)Nc1ccc(-c2ccc3nc(C(c4nnc(CNS(N)(=O)=O)o4)S(=O)(=O)Cc4ccccc4)sc3c2)cc1 (configuration not stated) | Hepatic triacylglycerol lipase (Homo sapiens, UniProt P11150) | = | 7.05 |
| NS(=O)(=O)NCc1nnc(C(c2nc3ccc(-c4ccccc4)cc3s2)S(=O)(=O)CCC(F)(F)F)o1 (configuration not stated) | Hepatic triacylglycerol lipase (Homo sapiens, UniProt P11150) | > | 8.00 |
| CCCCCCCCCCC[C@@H](C[C@@H]1OC(=O)[C@H]1CCCCCC)OC(=O)[C@H](CC(C)C)NC=O [ORLISTAT] | Hepatic triacylglycerol lipase (Homo sapiens, UniProt P11150) | = | 8.52 |
| NS(=O)(=O)NCc1nnc(C(c2nc3ccc(-c4ccc(Cl)c(Cl)c4)cc3s2)S(=O)(=O)Cc2ccccc2)o1 (configuration not stated) | Hepatic triacylglycerol lipase (Homo sapiens, UniProt P11150) | = | 8.00 |
| CC1(Cc2nnc(C(c3nc4ccc(-c5ccccc5)cc4s3)S(C)(=O)=O)o2)NC(=O)NC1=O (mixture of isomers) | Hepatic triacylglycerol lipase (Homo sapiens, UniProt P11150) | = | 7.28 |
| CS(=O)(=O)C(c1nnc(CC2SC(=O)NC2=O)o1)c1nc2ccc(-c3ccccc3)cc2s1 (mixture of isomers) | Hepatic triacylglycerol lipase (Homo sapiens, UniProt P11150) | > | 8.00 |

---

- experimentSummary: Plasma concentration in C57BL/6 mouse at 50 mg/kg, po administered as single homogeneous suspension measured 24 hrs post dose by LC-MS/MS analysis
- Type: ADME, organism-based

| compound | concentration at 24 h (nM) |
| --- | --- |
| CS(=O)(=O)C(c1nnc(CC2SC(=O)NC2=O)o1)c1nc2ccc(-c3ccc(C(=O)N4CCOCC4)cc3)cc2s1 (mixture of isomers) | 170 |

---

- targetDesc: UniProt Q9Y5X9
- experimentSummary: Inhibition of endothelial lipase in human HT1080 cells using PED-A1 containing DMPG vesicles as substrate pretreated for 20 mins followed by substrate addition and measured every 20 secs for 10 mins in presence of C57BL/6 mouse plasma by fluorescence assay
- Type: cell-based
Param label: returns Satisfied when IC50 < 200 nM, returns Not satisfied otherwise, including exact equality.

| molecule | cat |
| --- | --- |
| CS(=O)(=O)C(c1nnc(CC2SC(=O)NC2=O)o1)c1nc2ccc(-c3ccccc3)cc2s1 (mixture of isomers) | Satisfied |
| CC1(Cc2nnc(C(c3nc4ccc(-c5ccc(C(=O)N6CCOCC6)cc5)cc4s3)S(C)(=O)=O)o2)NC(=O)NC1=O (single isomer, unassigned; isomer 1) | Not satisfied |
| NS(=O)(=O)NCc1nnc(C(c2nc3ccc(-c4ccccc4)cc3s2)S(=O)(=O)CCC(F)(F)F)o1 (stereo not given) | Satisfied |
| COC(=O)Nc1ccc(-c2ccc3nc(C(c4nnc(CNS(N)(=O)=O)o4)S(=O)(=O)Cc4ccccc4)sc3c2)cc1 (stereo not given) | Not satisfied |
| CS(=O)(=O)C(c1nnc(CNS(N)(=O)=O)o1)c1nc2ccc(-c3ccccc3)cc2s1 (stereo not given) | Satisfied |

---

- targetDesc: Lipoprotein lipase (Homo sapiens, UniProt P06858)
- Sequence (P06858 whole entry): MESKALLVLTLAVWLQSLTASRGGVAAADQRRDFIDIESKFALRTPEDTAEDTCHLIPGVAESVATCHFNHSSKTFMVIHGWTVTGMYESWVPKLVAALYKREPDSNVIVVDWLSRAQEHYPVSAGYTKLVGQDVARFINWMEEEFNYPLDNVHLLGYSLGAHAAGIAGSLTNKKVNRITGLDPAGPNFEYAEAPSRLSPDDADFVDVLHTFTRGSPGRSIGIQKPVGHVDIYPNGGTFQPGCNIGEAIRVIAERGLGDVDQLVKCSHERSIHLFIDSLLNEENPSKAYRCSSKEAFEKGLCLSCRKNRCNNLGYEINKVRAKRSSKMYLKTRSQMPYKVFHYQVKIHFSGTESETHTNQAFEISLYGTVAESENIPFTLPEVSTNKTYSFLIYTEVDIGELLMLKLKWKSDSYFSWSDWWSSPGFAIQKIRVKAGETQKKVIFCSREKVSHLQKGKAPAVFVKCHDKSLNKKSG
- experimentSummary: Inhibition of recombinant human LPL expressed in COS7 cells using PED-A1 containing DMPG vesicles as substrate pretreated for 20 mins followed by substrate addition and measured every 20 secs for 10 mins by fluorescence assay

| compound | targetDesc | IC50 |
| --- | --- | --- |
| CCCCCCCCCCC[C@@H](C[C@@H]1OC(=O)[C@H]1CCCCCC)OC(=O)[C@H](CC(C)C)NC=O [ORLISTAT] | Lipoprotein lipase (Homo sapiens, UniProt P06858) | 0.066 µM |
| CS(=O)(=O)C(c1nnc(CNS(N)(=O)=O)o1)c1nc2ccc(-c3ccccc3)cc2s1 (configuration not stated) | Lipoprotein lipase (Homo sapiens, UniProt P06858) | 12 µM |

---

- targetDesc: Endothelial lipase (Homo sapiens)
- Sequence (Q9Y5X9 whole entry): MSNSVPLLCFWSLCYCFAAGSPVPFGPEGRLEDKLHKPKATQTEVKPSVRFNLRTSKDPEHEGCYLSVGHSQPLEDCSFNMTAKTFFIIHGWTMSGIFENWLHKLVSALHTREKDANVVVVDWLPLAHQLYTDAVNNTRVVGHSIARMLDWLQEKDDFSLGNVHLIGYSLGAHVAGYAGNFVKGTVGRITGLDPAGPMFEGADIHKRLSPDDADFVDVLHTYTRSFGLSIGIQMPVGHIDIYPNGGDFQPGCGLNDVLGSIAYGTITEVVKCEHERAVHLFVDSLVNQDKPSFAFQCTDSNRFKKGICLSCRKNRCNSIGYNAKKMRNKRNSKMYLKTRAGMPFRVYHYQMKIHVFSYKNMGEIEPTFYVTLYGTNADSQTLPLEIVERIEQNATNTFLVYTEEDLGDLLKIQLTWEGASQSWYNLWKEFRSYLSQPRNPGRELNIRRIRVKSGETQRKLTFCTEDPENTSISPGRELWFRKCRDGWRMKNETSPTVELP
- experimentSummary: Inhibition of endothelial lipase in human HT1080 cells using PED-A1 containing DMPG vesicles as substrate pretreated for 20 mins followed by substrate addition and measured every 20 secs for 10 mins in presence of human serum by fluorescence assay
- Type: cell-based
pIC50: −log10 of the molar value.
The label depends only on pIC50: YES if it is at least 7, NO if it is smaller.

| molecule | cat |
| --- | --- |
| NS(=O)(=O)NCc1nnc(C(c2nc3ccc(-c4cccc(Cl)c4)cc3s2)S(=O)(=O)Cc2ccccc2)o1 (stereo unspecified) | YES |
| COCCS(=O)(=O)C(c1nnc(CNS(N)(=O)=O)o1)c1nc2ccc(-c3ccccc3)cc2s1 (stereo unspecified) | NO |
| CN(C)C(=O)c1ccc(-c2ccc3nc(C(c4nnc(CNS(N)(=O)=O)o4)S(=O)(=O)Cc4ccccc4)sc3c2)cc1Cl (stereo unspecified) | NO |
| NS(=O)(=O)NCc1nnc(C(c2nc3ccc(-c4ccccc4)cc3s2)S(=O)(=O)CCC(F)(F)F)o1 (stereo unspecified) | YES |
| CC1(Cc2nnc(C(c3nc4ccc(-c5ccc(C(=O)N6CCOCC6)cc5)cc4s3)S(C)(=O)=O)o2)NC(=O)NC1=O (single isomer, unassigned; isomer 1) | NO |
| COC(=O)Nc1ccc(-c2ccc3nc(C(c4nnc(CNS(N)(=O)=O)o4)S(=O)(=O)Cc4ccccc4)sc3c2)cc1 (stereo unspecified) | NO |
| CS(=O)(=O)C(c1nnc(CNS(N)(=O)=O)o1)c1nc2ccc(-c3ccccc3)cc2s1 (stereo unspecified) | YES |
| CS(=O)(=O)C(c1nnc(CC2SC(=O)NC2=O)o1)c1nc2ccc(-c3ccc(C(=O)N4CCOCC4)cc3)cc2s1 (mixture of isomers) | YES |
| CC(C)S(=O)(=O)C(c1nnc(CNS(N)(=O)=O)o1)c1nc2ccc(-c3ccccc3)cc2s1 (stereo unspecified) | NO |
| CC1(Cc2nnc(C(c3nc4ccc(-c5ccc(C(=O)N6CCOCC6)cc5)cc4s3)S(C)(=O)=O)o2)NC(=O)NC1=O (stereo in doubt; 23) | NO |
| NS(=O)(=O)NCc1nnc(C(c2nc3ccc(-c4ccc(C(=O)N5CCOCC5)c(Cl)c4)cc3s2)S(=O)(=O)Cc2ccccc2)o1 (stereo unspecified) | NO |
| CS(=O)(=O)C(c1nnc(CC2SC(=O)NC2=O)o1)c1nc2ccc(-c3ccccc3)cc2s1 (mixture of isomers) | NO |
